Biological target: T1, biotin-peptide DYGSESTSSM (human)
T1 peptide: Biotin-DYGSESTSSM
Experiment: ELISA biotin-peptide; scFv 10 ug/mL; repI
Where no end group is shown, it is not given here. The star is where a group is joined. Biotin = O=C1N[C@H]2[C@H](CS[C@H]2CCCCC(=O)*)N1
Can you tell me OD450 for the items I'm about to list?
Just the number please, in OD, no unit attached.

Prompt: Look up OD450: Comparative antibody 3 (Comp-3) scFv, SR_92R (Somovilla-Crespo et al. 2018), His-tagged (scFv) scFv: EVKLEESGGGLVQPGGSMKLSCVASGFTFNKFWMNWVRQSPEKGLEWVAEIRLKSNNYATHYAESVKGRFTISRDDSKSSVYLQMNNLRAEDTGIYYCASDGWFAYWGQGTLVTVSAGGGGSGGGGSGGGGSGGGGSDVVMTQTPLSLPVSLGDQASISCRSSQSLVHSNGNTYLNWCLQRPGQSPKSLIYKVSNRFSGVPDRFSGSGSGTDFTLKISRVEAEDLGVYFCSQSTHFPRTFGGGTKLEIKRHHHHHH
Response: 0.12

Prompt: Look up OD450: CCR9_HUM2 scFv (humanized anti-CCR9 scFv, SEQ ID NO: 17 with C-terminal 6xHis tag) (scFv) scFv: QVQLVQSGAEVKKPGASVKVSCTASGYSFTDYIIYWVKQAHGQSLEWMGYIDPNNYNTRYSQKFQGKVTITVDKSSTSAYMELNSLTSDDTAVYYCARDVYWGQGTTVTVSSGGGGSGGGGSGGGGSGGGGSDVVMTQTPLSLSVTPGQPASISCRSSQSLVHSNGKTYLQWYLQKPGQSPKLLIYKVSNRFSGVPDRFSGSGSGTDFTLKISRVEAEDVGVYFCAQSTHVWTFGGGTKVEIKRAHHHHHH
Response: 0.09

Prompt: Look up OD450: Comparative antibody 2 (Comp-2) scFv, 243LO326 (VH SEQ ID NO: 51 and VL SEQ ID NO: 52 of WO 2022/195028 A2), His-tagged (scFv) scFv: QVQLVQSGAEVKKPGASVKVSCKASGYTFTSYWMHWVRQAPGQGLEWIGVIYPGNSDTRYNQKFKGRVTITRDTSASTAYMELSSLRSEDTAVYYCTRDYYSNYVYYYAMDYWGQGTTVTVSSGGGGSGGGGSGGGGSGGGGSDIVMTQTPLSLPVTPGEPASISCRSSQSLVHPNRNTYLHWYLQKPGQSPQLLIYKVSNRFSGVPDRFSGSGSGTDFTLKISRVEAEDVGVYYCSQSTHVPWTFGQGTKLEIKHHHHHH
Response: 0.09

Prompt: Look up OD450: Comparative antibody 1 (Comp-1) scFv, SEQ ID NO: 10 from WO2023/037125 A1, His-tagged (scFv) scFv: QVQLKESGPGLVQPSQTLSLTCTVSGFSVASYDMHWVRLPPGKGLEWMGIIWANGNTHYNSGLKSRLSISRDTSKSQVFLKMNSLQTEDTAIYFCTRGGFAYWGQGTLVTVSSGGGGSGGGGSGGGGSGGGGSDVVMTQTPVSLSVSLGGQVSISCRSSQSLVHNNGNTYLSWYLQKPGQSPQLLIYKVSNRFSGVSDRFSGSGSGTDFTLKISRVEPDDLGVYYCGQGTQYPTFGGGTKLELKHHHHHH
Response: 0.1
